- ASSAY DETAILS: Cytotoxicity evaluation, MTT assay
- Type: cell-based, human
- TEST CONTEXT: human
Binary call on CC50 at 72 h with cut-off 10 µM: strictly below means condition met, and equality or higher means condition not met.

The examples below pair each entry with its known result.
c1ccc(-c2cc(CNCCN3CCCCC3)nc3c2ccc2c(-c4ccccc4)cc(CNCCN4CCCCC4)nc23)cc1 [Compound 1j] | condition met
c1ccc(-c2cc(CNCCCN3CCOCC3)nc3c2ccc2c(-c4ccccc4)cc(CNCCCN4CCOCC4)nc23)cc1 [Compound 1i] | condition met
c1ccc(-c2cc(CNCCc3ccncc3)nc3c2ccc2c(-c4ccccc4)cc(CNCCc4ccncc4)nc23)cc1 [Compound 1o] | condition not met

**Q:** Check if CC50 at 72 h falls below 10 µM for CN1CCN(CCNCc2cc(-c3ccccc3)c3ccc4c(-c5ccccc5)cc(CNCCN5CCN(C)CC5)nc4c3n2)CC1 [Compound 1e] .
**A:** condition not met

**Q:** Check if CC50 at 72 h falls below 10 µM for CN1CCN(CCCCNCc2cc(-c3ccccc3)c3ccc4c(-c5ccccc5)cc(CNCCCCN5CCN(C)CC5)nc4c3n2)CC1 [Compound 1g] .
**A:** condition not met

**Q:** Check if CC50 at 72 h falls below 10 µM for CN(C)CCCNCc1cc(-c2ccccc2)c2ccc3c(-c4ccccc4)cc(CNCCCN(C)C)nc3c2n1 [Compound 1b] .
**A:** condition met

**Q:** Check if CC50 at 72 h falls below 10 µM for c1ccc(-c2cc(CNCCc3ccccn3)nc3c2ccc2c(-c4ccccc4)cc(CNCCc4ccccn4)nc23)cc1 [Compound 1m] .
**A:** condition met
